# System tested: T1, human Trop2 on cells (human, UniProt P09758 27-323)
# T1 sequence (looked up): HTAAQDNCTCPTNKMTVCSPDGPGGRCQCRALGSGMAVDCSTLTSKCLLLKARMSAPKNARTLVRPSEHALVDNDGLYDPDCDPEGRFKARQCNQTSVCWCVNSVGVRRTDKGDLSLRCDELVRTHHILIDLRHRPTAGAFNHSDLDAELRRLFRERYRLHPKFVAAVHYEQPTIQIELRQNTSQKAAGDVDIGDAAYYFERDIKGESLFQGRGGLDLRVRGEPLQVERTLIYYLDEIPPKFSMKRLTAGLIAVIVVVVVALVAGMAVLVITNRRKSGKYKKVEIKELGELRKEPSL
# Assay method text: cell-based or functional assay
Measurement type: ADCP (Donor A19143143#) Maximum phagocytosis % (%)
Field format: number, assumed %, no unit text.

Exercise: Any idea what ADCP (Donor A19143143#) Maximum phagocytosis % was measured for PR001165 (antibody, human IgG1, kappa, V domains shown, fully human IgG1/kappa; also called antibody No. (26)) VH: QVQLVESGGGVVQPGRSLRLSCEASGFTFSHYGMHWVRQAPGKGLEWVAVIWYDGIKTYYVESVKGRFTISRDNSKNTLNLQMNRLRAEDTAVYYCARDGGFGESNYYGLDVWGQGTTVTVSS VL: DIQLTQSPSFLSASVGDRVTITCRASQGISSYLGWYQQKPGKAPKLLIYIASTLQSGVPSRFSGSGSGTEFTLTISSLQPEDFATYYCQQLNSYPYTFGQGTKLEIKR ?
Solution: 42.7
